B1: Formin-binding protein 4, residues 593 to 636; numbered along this chain, Q8N3X1 (parent)
chain: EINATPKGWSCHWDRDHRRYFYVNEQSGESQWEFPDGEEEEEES

variants of: B1; assay: abundance fitness (aPCA) (normalised: wild type 0, dead -1); higher = more abundant; growth selection in yeast, the domain comes from the species named; details: Homo sapiens
Think of -0.2 as a floor: if abundance fitness stands on it or above, it is yes; beneath it, no.

{"seq": "EINATPKGWSCMWDRDHRRYFYVNEQSGESQWEFPDGEEEEEES [H12M]", "assigned-class": "no"}
{"seq": "EINATPKGWSCHWDRDHRRYFYVNEQSGESQWEFPDGEETEEES [E40T]", "assigned-class": "yes"}
{"seq": "EINATPKGWSCHWDRDHRRYFYVNEFSGESQWEFPDGEEEEEES [Q26F]", "assigned-class": "yes"}
{"seq": "EINATPKGWSCHWDRDHRRYFYVNEQSGESQWHFPDGEEEEEES [E33H]", "assigned-class": "no"}
{"seq": "EINATPKGWSCHWDRDHRRYFSVNEQSGESQWEFPDGEEEEEES [Y22S]", "assigned-class": "no"}
{"seq": "EINATPKGWSCHWDRDHRRYFYVNEQSGEHQWEFPDGEEEEEES [S30H]", "assigned-class": "no"}
{"seq": "EINATPKGWSCHWDRDHLRYFYVNEQSGESQWEFPDGEEEEEES [R18L]", "assigned-class": "yes"}
{"seq": "EINATPKGWSCHWDRDHRRYFYVNEQSGESQYEFPDGEEEEEES [W32Y]", "assigned-class": "yes"}
{"seq": "EINTTPKGWSCHWDRDHRRYFYVNEQSGESQWEFPDGEEEEEES [A4T]", "assigned-class": "yes"}
{"seq": "EINATPKGWSCHWDRDHTRYFYVNEQSGESQWEFPDGEEEEEES [R18T]", "assigned-class": "no"}
{"seq": "EINATPKGWSCHWDRDHRRYFYVNEQSGESQWEWPDGEEEEEES [F34W]", "assigned-class": "yes"}
{"seq": "EINATPKGWSCHCDRDHRRYFYVNEQSGESQWEFPDGEEEEEES [W13C]", "assigned-class": "no"}
{"seq": "EINATPKGWSCHWDRDHRRYFYVNEQSGESQWEFPDGEEEEEQS [E43Q]", "assigned-class": "no"}
{"seq": "EINATPKGWSCHWDRDHRRYFYVNTQSGESQWEFPDGEEEEEES [E25T]", "assigned-class": "yes"}
{"seq": "EINATPKGWSCSWDRDHRRYFYVNEQSGESQWEFPDGEEEEEES [H12S]", "assigned-class": "no"}
{"seq": "EINATPKGWSCHWDFDHRRYFYVNEQSGESQWEFPDGEEEEEES [R15F]", "assigned-class": "yes"}
{"seq": "EINATPKGWSCHWDRDHRRYFYVNEQSGESQCEFPDGEEEEEES [W32C]", "assigned-class": "no"}
